Where do the numbers come from? From paper PMC9516332.

- subject-of-test: panel of 255 wild-type kinases (Homo sapiens, UniProt P19525)
- Sequence (P19525 whole entry): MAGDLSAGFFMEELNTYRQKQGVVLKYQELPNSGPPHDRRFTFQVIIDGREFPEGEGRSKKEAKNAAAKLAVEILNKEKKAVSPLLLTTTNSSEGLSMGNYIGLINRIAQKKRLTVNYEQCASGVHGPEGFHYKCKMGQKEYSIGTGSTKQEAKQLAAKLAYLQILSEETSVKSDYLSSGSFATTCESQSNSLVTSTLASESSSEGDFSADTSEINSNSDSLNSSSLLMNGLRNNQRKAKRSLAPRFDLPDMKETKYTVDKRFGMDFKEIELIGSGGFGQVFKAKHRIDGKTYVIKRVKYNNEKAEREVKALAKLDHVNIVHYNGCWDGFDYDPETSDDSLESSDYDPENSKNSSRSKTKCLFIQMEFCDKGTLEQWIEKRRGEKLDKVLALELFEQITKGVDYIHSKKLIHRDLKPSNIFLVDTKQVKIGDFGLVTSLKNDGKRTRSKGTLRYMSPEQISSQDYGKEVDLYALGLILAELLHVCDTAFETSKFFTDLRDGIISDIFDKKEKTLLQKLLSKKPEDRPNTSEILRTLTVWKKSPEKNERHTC
- assay-text: Kinase panel profiling at 1 µmol/L (MSA or IMAP), percentage inhibition
- Assay type: biochemical
- test-context: kinase PKR; 1 µmol/L single concentration; read-out: %-inhibition at 1 µmol/L, PKR
parameter: inhibition at 1 µM (%)

| structure-notation | parameter | experimental-result |
| --- | --- | --- |
| CCn1c(=O)c(-c2cc(NC(=O)Nc3ccccc3)c(F)cc2Br)cc2cnc(NC)cc21 | inhibition at 1 µM | -6 |
| O=C(Nc1cnn2ccc(N3CCC[C@@H]3c3cc(F)ccc3F)nc12)N1CC[C@H](O)C1 | inhibition at 1 µM | -2.17 |
| CO[C@]1(C(=O)N[C@@H](C)c2ccc(-n3cc(F)cn3)nc2)CC[C@H](c2nc(C)cc(Nc3cc(C)[nH]n3)n2)CC1 | inhibition at 1 µM | 8 |
| C[C@H]1Oc2cc(cnc2N)-c2c(nn(C)c2C#N)CN(C)C(=O)c2ccc(F)cc21 | inhibition at 1 µM | 0.666 |
| Cc1cc(Nc2ncnc3ccc(NC4=NC(C)(C)CO4)cc23)ccc1Oc1ccn2ncnc2c1 | inhibition at 1 µM | 3.37 |
